- Tested on: A431 (epidermoid carcinoma)
- protocol: Antiproliferative activity (CCK-8 cell viability), A431
- Type: cell-based
- run.parameters: Homo sapiens, A-431, Compound concentration: 10 μM, 72 h, read-out: Antiproliferative activity in cancerous cells, A431 (inhibition of cell growth)
property: inhibition at 10 µM

Query block: Name the value of inhibition at 10 µM reported for CC1=C(CC(=O)O)c2cc(F)ccc2/C1=C\c1ccc(CCOc2ccc(F)cc2)cc1 when tested on A431 (epidermoid carcinoma).
Result block: ≥ 50%

Query block: Name the value of inhibition at 10 µM reported for CC1=C(CC(=O)O)c2cc(F)ccc2/C1=C\c1ccc(OCc2cc3ccccc3s2)cc1 when tested on A431 (epidermoid carcinoma).
Result block: 30 to 50%

Query block: Name the value of inhibition at 10 µM reported for CC1=C(CC(=O)O)c2cc(C)ccc2/C1=C\c1ccc(CCCc2ccc(Cl)cc2)cc1 when tested on A431 (epidermoid carcinoma).
Result block: ≥ 50%

Query block: Name the value of inhibition at 10 µM reported for CC1=C(CC(=O)N2CCN(CCO)CC2)c2cc(F)ccc2/C1=C\c1ccc(Oc2ccc(F)cc2)cc1 when tested on A431 (epidermoid carcinoma).
Result block: < 30%

Query block: Name the value of inhibition at 10 µM reported for CC1=C(CC(=O)O)c2cc(I)ccc2/C1=C\c1ccc(COCc2ccc(F)cc2)cc1 when tested on A431 (epidermoid carcinoma).
Result block: ≥ 50%

---

So I've got a bunch of molecules here, and I need their inhibition at 10 µM values.
- Tested on: B16F10 (malignant melanoma)
- protocol: Antiproliferative activity (CCK-8 cell viability), B16F10
- Type: cell-based
- run.parameters: Mus musculus, B16-F10, Compound concentration: 10 μM, 72 h, read-out: Antiproliferative activity in cancerous cells, B16F10 (inhibition of cell growth)

Query block: Name the value of inhibition at 10 µM reported for CC1=C(CC(=O)O)c2c(F)ccc(F)c2/C1=C/c1cccc(C(F)(F)F)c1 [E13] when tested on B16F10 (malignant melanoma).
Result block: ≥ 50%

Query block: Name the value of inhibition at 10 µM reported for COc1ccc(S(=O)(=O)c2ccc(/C=C3/C(C)=C(CC(=O)O)c4cc(F)ccc43)cc2)cc1 [C41] when tested on B16F10 (malignant melanoma).
Result block: ≥ 50%

Query block: Name the value of inhibition at 10 µM reported for CC1=C(CC(=O)O)c2cc(F)ccc2/C1=C\c1ccc(Oc2ccc(Cl)cc2)cc1Oc1ccc(Cl)cc1 [C79] when tested on B16F10 (malignant melanoma).
Result block: ≥ 50%

Query block: Name the value of inhibition at 10 µM reported for CC1=C(CC(=O)O)c2ccc(F)cc2/C1=C\c1ccc(Oc2ccc(F)cc2)cc1 [C3] when tested on B16F10 (malignant melanoma).
Result block: 30 to 50%

---

So I've got a bunch of compounds here, and I need their inhibition at 10 µM values.
- Tested on: A431 (epidermoid carcinoma)
- protocol: Antiproliferative activity (CCK-8 cell viability), A431
- Format: cell-based
- run.parameters: Homo sapiens, A-431, Compound concentration: 10 μM, 72 h, read-out: Antiproliferative activity in cancerous cells, A431 (inhibition of cell growth)

Query block: Supply reported inhibition at 10 µM belonging to this compound: CC1=C(CC(=O)O)c2cc(F)ccc2/C1=C\c1ccc(C(=O)c2ccccc2)cc1
Result block: ≥ 50%

Query block: Supply reported inhibition at 10 µM belonging to this compound: CC1=C(CC(=O)O)c2cc(F)ccc2/C1=C/c1cccc(Oc2cccc(Cl)c2)c1
Result block: ≥ 50%

Query block: Supply reported inhibition at 10 µM belonging to this compound: CC1=C(CC(=O)O)c2cc(F)ccc2/C1=C\c1ccc(Oc2ccc(F)cc2)cc1Cl
Result block: ≥ 50%

Query block: Supply reported inhibition at 10 µM belonging to this compound: COc1ccc2c(c1)C(CC(=O)O)=C(C)/C2=C/c1ccc(COCc2ccc(Cl)cc2)cc1
Result block: ≥ 50%

Query block: Supply reported inhibition at 10 µM belonging to this compound: CC1=C(CC(=O)O)c2cc(F)ccc2/C1=C\c1ccc(CCCc2ccc(O)cc2)cc1
Result block: ≥ 50%

Query block: Supply reported inhibition at 10 µM belonging to this compound: CC1=C(CC(=O)O)c2cc(F)ccc2/C1=C\c1cccc(CSc2ccc(F)cc2)c1
Result block: 30 to 50%

Query block: Supply reported inhibition at 10 µM belonging to this compound: O=C(O)CC1=C(Cc2ccc(F)cc2)/C(=C/c2ccc(Oc3ccc(F)cc3)cc2)c2ccc(F)cc21
Result block: ≥ 50%

Query block: Supply reported inhibition at 10 µM belonging to this compound: COc1ccc(C(=O)c2ccc(/C=C3/C(C)=C(CC(=O)O)c4cc(F)ccc43)cc2)cc1
Result block: ≥ 50%

Query block: Supply reported inhibition at 10 µM belonging to this compound: COc1ccc(/C=C2/C(C)=C(CC(=O)O)c3cc(F)ccc32)cc1Cl
Result block: ≥ 50%

Query block: Supply reported inhibition at 10 µM belonging to this compound: CC1=C(CC(=O)O)c2c(Cl)cc(Cl)cc2/C1=C/c1ccc(Oc2ccc(F)cc2)cc1
Result block: ≥ 50%

Query block: Supply reported inhibition at 10 µM belonging to this compound: CC1=C(CC(=O)O)c2cc(F)ccc2/C1=C\c1ccc(COCc2ccc(C)cc2)cc1
Result block: ≥ 50%

Query block: Supply reported inhibition at 10 µM belonging to this compound: CC1=C(CC(=O)O)c2cc(F)ccc2/C1=C\c1ccc(Oc2ccc(Cl)cc2)cc1
Result block: ≥ 50%

Query block: Supply reported inhibition at 10 µM belonging to this compound: CC1=C(CC(=O)O)c2cc(F)ccc2/C1=C/c1ccc(CO)cc1
Result block: ≥ 50%

Query block: Supply reported inhibition at 10 µM belonging to this compound: CC1=C(CC(=O)O)c2ccc(F)c(F)c2/C1=C/c1cccc(Oc2ccccc2)c1
Result block: < 30%

Query block: Supply reported inhibition at 10 µM belonging to this compound: COc1ccc(S(=O)(=O)Cc2ccc(/C=C3/C(C)=C(CC(=O)O)c4cc(F)ccc43)cc2)cc1
Result block: ≥ 50%

Query block: Supply reported inhibition at 10 µM belonging to this compound: CCc1ccc(/C=C2/C(Cc3ccc(Oc4ccc(F)cc4)cc3)=C(CC(=O)O)c3cc(F)ccc32)cc1
Result block: ≥ 50%

Query block: Supply reported inhibition at 10 µM belonging to this compound: CC1=C(CCC(=O)O)c2ccccc2/C1=C\c1cccc(COc2ccccc2)c1
Result block: ≥ 50%

Query block: Supply reported inhibition at 10 µM belonging to this compound: COc1ccc2c(c1)C(CC(=O)O)=C(C)/C2=C/c1ccc(Oc2ccc(F)c(F)c2)cc1
Result block: ≥ 50%

All figures here come from patent US20260184663A1.
